system: HS 578T breast; assay: NCI-60 one-dose screen, 48 h (100 = growth as untreated, 0 = no growth, -100 = all killed); conditions: 10 µM unless noted
The panel holds about 83,000 compounds, 20% with a hit somewhere; the sample as a whole holds those more often.
Exercise: for every item that follows, state its recorded growth.
Answers are plain numbers, in %.

Reference set (3 entries):
| compound | val |
| --- | --- |
| Cn1cc(-c2cc3nc(-c4cn(C)c5ncc(Br)cc45)cc(N)n3n2)c2cc(Cl)ccc21 | -36.1 |
| CC12CC[C@@H]3[C@]4(C)COC(c5cn[nH]c5-c5cccc(Cl)c5)O[C@@H]4CC[C@@]3(C)[C@@H]1CC(C1=CCOC1=O)O2 (stereo partly specified) | 46.8 |
| COc1ccc2c(c1)c(-c1cc3nc(-c4cn(C)c5ncc(Br)cc45)cc(N)n3n1)cn2C | -18.6 |

List the reported growth of each compound below.
1. COc1ccc(C(=O)/C=C/c2ccccc2Cl)cc1S(N)(=O)=O
2. O=C(COc1ccc(NC(=O)Nc2ccc(Cl)c(Cl)c2)cc1)N=Nc1c(O)[nH]c2ccc(Cl)cc12
3. S=C(NCCc1ccccc1)Nc1ccc(OCc2nc3ccccc3[nH]2)cc1
4. COc1ccc(NC(=O)Cn2c3c(sc2=O)[C@H]2[C@@H](O)[C@@H](O)[C@H](O)[C@@H]2CS3)cc1
5. O=C(c1ccc(OCCN2CCOCC2)cc1)C1[C@H](c2ccc(Cl)cc2)[C@@H](c2ccccc2)NC12C(=O)Nc1ccc(Br)cc12 (stereo partly specified)
6. C=C1CCC2C3(C)COC(c4ccco4)OC3CCC2(C)C1CC(Sc1ccccc1)C1=CCOC1=O (stereo unspecified)
7. COc1cc2oc(-c3cccc(NC(=O)[C@H](Cc4ccccc4)NC(=O)OC(C)(C)C)c3)cc(=O)c2c(OC)c1OC
8. COC(OC)C1=C(C)OC(N)=C(C#N)C12C(=O)Nc1ccccc12 (stereo unspecified)

1. 107
2. -13.7
3. 109
4. 107
5. 57.2
6. 114
7. 16.4
8. 95.4

List the reported growth of each compound below.
1. CN1CCN(c2ccc(C(=O)/C=C/c3ccc(Br)cc3)cc2)CC1
2. COc1ccc(-c2nc3cc(C)ccc3n2CC(=O)N=Nc2c(O)[nH]c3ccc(Cl)cc23)cc1
3. NS(=O)(=O)c1ccc(-n2cc(-c3cccc(NC(=O)c4ccc(Cl)c(C(F)(F)F)c4)c3)nn2)cc1
4. Cc1cc2nc3c4ccccc4n(CC4=NCCN4)c3nc2cc1C
5. Cc1cccc(Nc2nc3ccccc3nc2/C=C/c2ccc(F)cc2)c1
6. Cc1cnc(C(=O)NNc2nc3cc(F)ccc3n3c(C(=O)N4CC5CC(C4)N5)ccc23)cn1

89.6
-2.87
32.1
76.4
83.8
62.9

Hello, the source for this data is PubChem BioAssay (NCI), in case you need it.
